Where do these numbers come from? They come from patent US11224609B2.

Here's what we have: log10 GI50 numbers for DU 145 cells.
Give log10 of GI50, with GI50 taken in nM.

Worked cases, answers included:
COC(=O)C(Cc1cn(C)c2ccccc12)NC(=O)C(OC)C1Cc2cc3cc(OC4CC(OC5CC(O)C(O)C(C)O5)C(O)C(C)O4)c(C)c(O)c3c(O)c2C(=O)C1OC1CC(OC2CC(OC3CC(C)(O)C(O)C(C)O3)C(O)C(C)O2)C(O)C(C)O1 (centres unmarked) :: 2.88
C=CCOc1ccc2[nH]cc(CC(NC(=O)C(OC)C3Cc4cc5cc(OC6CC(OC7CC(O)C(O)C(C)O7)C(O)C(C)O6)c(C)c(O)c5c(O)c4C(=O)C3OC3CC(OC4CC(OC5CC(C)(O)C(O)C(C)O5)C(O)C(C)O4)C(O)C(C)O3)C(=O)OC)c2c1 (centres unmarked) :: 2.47
COC(=O)C(Cc1c[nH]c2ccccc12)NC(=O)C(Cc1ccccc1)NC(=O)C(OC)C1Cc2cc3cc(OC4CC(OC5CC(O)C(O)C(C)O5)C(O)C(C)O4)c(C)c(O)c3c(O)c2C(=O)C1OC1CC(OC2CC(OC3CC(C)(O)C(O)C(C)O3)C(O)C(C)O2)C(O)C(C)O1 (centres unmarked) :: 2.60
COC(=O)C(Cc1ccccc1)NC(=O)C(Cc1ccccc1)NC(=O)C(OC)C1Cc2cc3cc(OC4CC(OC5CC(O)C(O)C(C)O5)C(O)C(C)O4)c(C)c(O)c3c(O)c2C(=O)C1OC1CC(OC2CC(OC3CC(C)(O)C(O)C(C)O3)C(O)C(C)O2)C(O)C(C)O1 (centres unmarked) :: 2.20

Please find the next compound below.
The compound COC(=O)C(Cc1c[nH]c2ccccc12)NC(=O)C(OC)C1Cc2cc3cc(OC4CC(OC5CC(O)C(O)C(C)O5)C(O)C(C)O4)c(C)c(O)c3c(O)c2C(=O)C1OC1CC(OC2CC(OC3CC(C)(O)C(O)C(C)O3)C(O)C(C)O2)C(O)C(C)O1 (centres unmarked) [MTMSA-Trp (3), Mithramycin SA-Tryptophan, reference compound] on DU 145 cells: log10 GI50 was 1.66
